Tested on: BT-474 Tam2
Assay: drug sensitivity score (DSS) (DSS (dimensionless)); higher = more sensitive; extreme values may be limits of the assay
Details: 4-OH-tamoxifen in medium 1 µM; 72 h
Returns Fulfilled if the recorded drug sensitivity score is greater than or equal to 1, and Not fulfilled otherwise.

Below, 3 molecules whose answers are already recorded.
Cc1[nH]c2ccccc2c1CCNCc1ccc(/C=C/C(=O)NO)cc1; Fulfilled
CN(C)C/C=C/C(=O)Nc1cc2c(Nc3ccc(F)c(Cl)c3)ncnc2cc1O[C@H]1CCOC1; Fulfilled
CC(C)c1c(C(=O)Nc2ccccc2)c(-c2ccccc2)c(-c2ccc(F)cc2)n1CC[C@@H](O)C[C@@H](O)CC(=O)O; Fulfilled

q: Kindly determine if drug sensitivity score recorded for N.N.[Cl][Pt][Cl] [Cisplatin] is above or exactly 1.
a: Not fulfilled

q: Kindly determine if drug sensitivity score recorded for "C[C@]1(c2nc3c(C(N)=O)cccc3[nH]2)CCCN1" is above or exactly 1.
a: Not fulfilled

q: Kindly determine if drug sensitivity score recorded for "CN(C)c1nc(N(C)C)nc(N(C)C)n1" is above or exactly 1.
a: Not fulfilled

q: Kindly determine if drug sensitivity score recorded for "CC(C)C[C@H](NC(=O)[C@H](CCc1ccccc1)NC(=O)CN1CCOCC1)C(=O)N[C@@H](Cc1ccccc1)C(=O)N[C@@H](CC(C)C)C(=O)[C@@]1(C)CO1" is above or exactly 1.
a: Fulfilled

q: Kindly determine if drug sensitivity score recorded for "COc1cc2c(N3CCN(C(=O)Nc4ccc(OC(C)C)cc4)CC3)ncnc2cc1OCCCN1CCCCC1" is above or exactly 1.
a: Not fulfilled

q: Kindly determine if drug sensitivity score recorded for "O=C(CCCCCCC(=O)Nc1ccc([C@H]2O[C@@H](CSc3nc(-c4ccccc4)c(-c4ccccc4)o3)C[C@@H](c3ccc(CO)cc3)O2)cc1)NO" is above or exactly 1.
a: Fulfilled

q: Kindly determine if drug sensitivity score recorded for "COc1ncc(-c2ccc3nccc(-c4ccnnc4)c3c2)cc1NS(=O)(=O)c1ccc(F)cc1F" is above or exactly 1.
a: Fulfilled

Data provenance: the supplement of paper PMC4932681
